Field: Papp A→B at 2 h. Provide a value for each of the compounds that follow.
- PROCEDURE_TEXT: Transcellular transport
- TEST_CONDITIONS: human
// note: answer is a bare numeric in nm/s

(Q) // returns reported Papp A→B at 2 h for input CCCc1nc2c(C)cc(-c3nc4ccccc4n3C)cc2n1Cc1ccc(-c2ccccc2C(=O)O)cc1 [Telmisartan]
(A) 9

(Q) // returns reported Papp A→B at 2 h for input COCCn1c2c([n+](Cc3cnccn3)c1C)C(=O)c1ccccc1C2=O [YM155]
(A) 66.6

(Q) // returns reported Papp A→B at 2 h for input O=C1CN(/N=C/c2ccc(-c3ccc([N+](=O)[O-])cc3)o2)C(O)=N1 [Dantrolene, Dantrolene sodium]
(A) 92.8

(Q) // returns reported Papp A→B at 2 h for input NCC1(CC(=O)O)CCCCC1 [Gabapentin]
(A) 141
